Tested on: NCI-H522 lung
Assay: NCI tumour cell line growth inhibition, 48 h
PROPERTY MEASURED: TGI (µM)
Answer with a number only, understood to be in µM.

COMPOUND | PROPERTY MEASURED | OBSERVED RESULT
COc1cc2oc(-c3cccc(C(=O)Nc4ccc(C)cc4)c3)cc(=O)c2c(OC)c1OC | TGI | 9.31
CC(=O)Oc1ccccc1C(=O)NCCC[Se]C#N | TGI | 3.5
Cc1cccc2cc3cccc(C(=O)NCCN(C)C)c3nc12 | TGI | 1.19
CNc1cccc2c1C(C)C[C@]1(C)C(=O)Nc3ccccc3[C@H]21 (some centres undefined) | TGI | 89
CC1(Cc2cc3c(cc2C2(c4ccc([N+](=O)[O-])cc4)OCCO2)OCO3)OCCO1 | TGI | 82.3
CC(C)(C)Cc1cc(O)ccc1O | TGI | 86.7
CCOc1ccc2c(c1)C(=O)c1c-2n(CCCN)c(=O)c2cc([N+](=O)[O-])ccc12 | TGI | 1.52

Now, please, on to the next compound.
# input compound: CC(C)(C)OC(=O)NCC(=O)N(CCc1ccc(Cl)c(Cl)c1)CCN1CCCC1 ; wanted: its TGI
29.4
